- assay_explanation: NCI Yeast Anticancer Drug Screen. Data for the mec2-1 strain (AID 157)
- experimental_context: S. cerevisiae mec2-1 strain, hits give high values; at 50.0 µM unless noted
The panel holds about 79,000 compounds, 15% with a hit somewhere; the sample as a whole holds those more often.
Recorded growth inhibition, one value per entry.
measured_quantity: growth inhibition (%)

{"compound": "CCCCC(OC(=O)c1ccccc1)c1cc(OC(=O)c2ccccc2)c2c(c1OC(=O)c1ccccc1)CC(C)=C(C)C2 (stereo unspecified)", "measured_quantity": "growth inhibition", "result_number": 49.6}
{"compound": "CCN1CCC(S(=O)(=O)CCS(=O)(=O)C2CCN(CC)C2)C1 (stereo unspecified)", "measured_quantity": "growth inhibition", "result_number": 0.55}
{"compound": "CC(N)(CC(O)(C(F)(F)Cl)C(F)(F)Cl)C(=O)O (stereo unspecified)", "measured_quantity": "growth inhibition", "result_number": -37.7}
{"compound": "Cc1cc(Cl)c(OCC(=O)O)cc1C", "measured_quantity": "growth inhibition", "result_number": -9.45}
{"compound": "CN(C)/N=C/C=C1\\N=C(c2ccccc2)OC1=O", "measured_quantity": "growth inhibition", "result_number": -10.6}
{"compound": "COC(=O)NC1C(OC(C)=O)C(OC(C)=O)C(COC(C)=O)OC1n1ccc(NC(C)=O)nc1=O (stereo unspecified)", "measured_quantity": "growth inhibition", "result_number": 1.4}

====

growth inhibition values for the compounds below.
- assay_explanation: NCI Yeast Anticancer Drug Screen. Data for the bub3 strain (AID 167)
- experimental_context: S. cerevisiae bub3 mutant strain, hits give high values; at 50.0 µM unless noted
About 79,000 compounds went through this panel and 15% of them were active in at least one assay; those are over-represented in the sample as a whole.

{"compound": "COc1cc(OC)c(-c2nc3ccccc3c(=O)o2)cc1OC", "growth inhibition, %": -0.75}
{"compound": "CCCCC(Sc1nn(C2OC(COC(=O)c3ccccc3)C(OC(=O)c3ccccc3)C2OC(=O)c2ccccc2)c(=O)[nH]c1=O)C(=O)OCC (stereo unspecified)", "growth inhibition, %": -4.7}
{"compound": "CCC(=O)c1ccc(OC)cc1OC", "growth inhibition, %": 4.4}
{"compound": "CC1CC(=O)Nc2nc3ccccc3n21 (stereo unspecified)", "growth inhibition, %": -21.8}
{"compound": "O=C(OCC1OCOC2C(COC(=O)c3ccccc3)OCOC12)c1ccccc1 (stereo unspecified)", "growth inhibition, %": 13.7}
{"compound": "CCCCCCCCCCCCCCCCCc1c(Cl)c(Cl)c(Cl)c(Cl)c1Cl", "growth inhibition, %": -2.75}
{"compound": "O=C(O)Cc1ccc(-c2cn3c(n2)sc2ccccc23)cc1", "growth inhibition, %": 24.8}
{"compound": "COC1OC(COS(=O)(=O)c2ccc(C)cc2)C(OS(=O)(=O)c2ccc(C)cc2)C(OS(=O)(=O)c2ccc(C)cc2)C1OS(=O)(=O)c1ccc(C)cc1 (stereo unspecified)", "growth inhibition, %": 0.75}
{"compound": "CC(=O)OC1CCC2(C)C3CCC4(C)C(C(C)CCCC(C)C)CCC4C3C3CC32C1 (stereo unspecified)", "growth inhibition, %": -3.05}
{"compound": "OCC(O)COc1ccc(Cl)cc1 (stereo unspecified)", "growth inhibition, %": 6.4}
{"compound": "c1ccc2c(c1)ccc1c[n+]3ccccc3cc12", "growth inhibition, %": 9.25}
{"compound": "ClCCN1CCOC1=Nc1ccc2c(c1)CCCC2", "growth inhibition, %": -7.25}
{"compound": "CN(N)c1nc(N)c(C#N)c(C#N)c1C#N", "growth inhibition, %": -2.65}
{"compound": "C(=N\\N1CN(/N=C/c2ccccc2)C(c2ccccc2)C1c1ccccc1)/c1ccccc1 (stereo unspecified)", "growth inhibition, %": -1.65}
{"compound": "O=S(=O)(CCCl)c1ccc(Br)cc1", "growth inhibition, %": 39.4}
{"compound": "COc1ccc(/C=N/NC(=S)NN)cc1", "growth inhibition, %": 33.6}
{"compound": "COc1ccccc1CN1CCCN(Cc2ccccc2OC)C1c1ccc(N(C)C)cc1", "growth inhibition, %": 14.3}
{"compound": "CCCCCCCCCCCCCCCCC(C#N)C(=O)O (stereo unspecified)", "growth inhibition, %": -22.8}
{"compound": "COc1ccc([N+](=O)[O-])cc1N(C)C", "growth inhibition, %": -14.2}
{"compound": "Nc1nc(CCc2ccc(NC(=O)CBr)cc2)c(CCCCc2ccccc2)c(=O)[nH]1", "growth inhibition, %": 3.75}
{"compound": "CCOC(OCC)c1cc(=O)[nH]c(NC(C)=O)n1", "growth inhibition, %": -1.25}
{"compound": "CN(C)c1nc(NC(=O)NC(=O)c2c(F)cccc2F)nc(N(C)C)n1", "growth inhibition, %": 18.8}
{"compound": "CC(=O)NCCc1ccccc1", "growth inhibition, %": 10}
{"compound": "Nn1c(NNC(=O)C(=O)Nc2cc(Cl)c(Cl)cc2Cl)n[nH]c1=S", "growth inhibition, %": 19.2}
{"compound": "COc1ccc2c(c1)[n+](=O)c(C(=O)CC(=O)C(=O)Nc1cccc(C)c1C)c(C)n2[O-]", "growth inhibition, %": 5.3}
{"compound": "COc1cc2c(cc1OC)C1Cc3ccccc3CCN1CC2 (stereo unspecified)", "growth inhibition, %": -9.95}
{"compound": "O=C1N(C2CCCCC2)C(/C=C/c2ccccc2)C1(c1ccccc1)c1ccccc1 (stereo unspecified)", "growth inhibition, %": -6.05}
{"compound": "CC(/C(=N/O)c1ccccc1)N1C(=O)c2ccccc2C1=O (stereo unspecified)", "growth inhibition, %": -3.95}
{"compound": "CCSc1nnc(Sc2c3ccccc3nc3ccccc23)s1", "growth inhibition, %": 16.8}
{"compound": "O=C1C=CC(=Nc2ccc3c(c2)-c2ccccc2C3)O1", "growth inhibition, %": 1.35}
{"compound": "Clc1ccc(Oc2ncnc3nc[nH]c23)cc1", "growth inhibition, %": -1.5}
{"compound": "COc1ccccc1OC(=O)Nc1ccc(S(=O)(=O)NC2CCCCC2)cc1", "growth inhibition, %": -5.95}
{"compound": "O=C1CN(c2ccccc2)C(=O)CN1NCNN1CC(=O)N(c2ccccc2)CC1=O", "growth inhibition, %": -10}
{"compound": "Cc1cnc2ccccc2n1 (tested in a mixture with another compound)", "growth inhibition, %": -2.1}
{"compound": "O=C1c2ccccc2-c2c1c1ccccc1c(=O)n2-c1ccccc1", "growth inhibition, %": -13.6}
{"compound": "CC(O)C(O)C(O)C(O)c1nc2ccccc2[nH]1 (stereo unspecified)", "growth inhibition, %": 4.35}
{"compound": "CN1c2ccccc2N(C)C23N(C)c4ccccc4N(C)C12N(C)c1ccccc1N3C (stereo unspecified)", "growth inhibition, %": -22.1}
{"compound": "CN(C(=O)c1cccc([N+](=O)[O-])c1)C1CCCCC1", "growth inhibition, %": 22.4}
{"compound": "Cn1nnn(Cc2ccccc2)/c1=N/C(=S)Nc1ccccc1", "growth inhibition, %": 3.1}
{"compound": "COP(=O)(OC)/C(=C/c1cn(C(C)=O)c2ccccc12)NC(C)=O", "growth inhibition, %": 15.4}
{"compound": "C=CC[N+]1(CCOC(=O)C(c2ccccc2)C2C=CCC2)CCCC1 (stereo unspecified)", "growth inhibition, %": -13.9}
{"compound": "O=S1(=O)CCC(c2ccccc2)C1 (stereo unspecified)", "growth inhibition, %": -12.3}
{"compound": "Nc1ccc2c(c1)C(=O)c1cc(Cl)cc(Cl)c1-2", "growth inhibition, %": 7.05}
{"compound": "COC(=O)C1(C)CCCC2(C)c3cc(OC)ccc3C(=O)CC12 (stereo unspecified)", "growth inhibition, %": 19.6}
{"compound": "CC1=C(c2ccccc2)OC(c2ccccc2)=C[P+]1(c1ccccc1)c1ccccc1", "growth inhibition, %": 99.3}
{"compound": "O=C(c1ccccc1)c1ccc2c(Cl)ccc3c2c1CC3", "growth inhibition, %": 7.6}

====

A collection of molecules and their measured growth inhibition
- assay_explanation: NCI Yeast Anticancer Drug Screen. Data for the cln2 rad14 strain (AID 165);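 note: 0% = growth equal to vehicle treated cultures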
- experimental_context: S. cerevisiae cln2 rad14 strain, hits give high values; at 50.0 µM unless noted
- Procedure: Growth inhibition of yeast strains with defined genetic alterations is measured as a screen for potential anti-cancer activity. Selected strains with alterations in DNA damage repair or cell cycle control were exposed to compounds and growth inhibition was measured relative to vehicle treated controls. The strain used in this assay is cln2 rad14
About 79,000 compounds went through this panel and 15% of them were active in at least one assay; those are over-represented in the sample as a whole.
measured_quantity: growth inhibition (%)

{"molecule": "CC(=O)Oc1ccc2c(c1)CCC2", "unit_tag": "%", "result_number": 8.25}
{"molecule": "CN[C@@H]1[C@H](O)[C@H](NC)[C@H]2O[C@@]3(O)C(=O)C[C@@H](C)O[C@H]3O[C@@H]2[C@H]1O", "unit_tag": "%", "result_number": 7.45}
{"molecule": "CCOC(=O)Cc1nc(/C(C#N)=C/c2ccco2)[nH]c(=O)c1C#N", "unit_tag": "%", "result_number": 34.2}
{"molecule": "O=C1CC2(C(=O)O)CC3CC2C(O1)C3I (stereo unspecified)", "unit_tag": "%", "result_number": 13.1}
{"molecule": "CCOC(=O)N1CCN(C(=O)CC(C)=O)CC1", "unit_tag": "%", "result_number": 19.1}
{"molecule": "CN(/N=C/c1cccs1)c1ccc(Cl)cc1[N+](=O)[O-]", "unit_tag": "%", "result_number": 0.95}
{"molecule": "NC(CCO)P(=O)(O)O (stereo unspecified)", "unit_tag": "%", "result_number": -55.7}
{"molecule": "O=C(c1cccs1)N(C(=S)N1CCN(c2ccccc2)CC1)C1CCCCC1", "unit_tag": "%", "result_number": 13.4}
{"molecule": "COc1ccc(C2S/C(=C\\c3ccc(OC)cc3OC)C(=O)N2NC(=O)Cc2ccccc2)cc1 (stereo unspecified)", "unit_tag": "%", "result_number": -59.6}
{"molecule": "CC(C)CCC[C@@H](C)C1CCC2[C@@H]3CCC4C[C@@H](CCC=C(c5cc(Cl)c(O)c(C(=O)O)c5)c5cc(Cl)c(O)c(C(=O)O)c5)CC[C@]4(C)C3CC[C@@]21C (stereo partly specified)", "unit_tag": "%", "result_number": -41}
{"molecule": "COc1ccc2c(c1)[n+](=O)c(C(=O)C/C(=N/NC(=O)C[N+](C)(C)C)C(=O)Nc1cccc(C)c1C)c(C)n2O", "unit_tag": "%", "result_number": -5.5}
{"molecule": "Cc1cc(C)c(C(=O)c2cccc(C)c2C(=O)O)c(C)c1", "unit_tag": "%", "result_number": 14.1}
{"molecule": "CCOC(=O)c1sc2c(c1OC(=O)c1ccc(OC)cc1)c(=O)n(-c1ccccc1)c(=S)n2-c1ccccc1", "unit_tag": "%", "result_number": 17.5}
{"molecule": "O=S=Nc1c(Cl)cc(Cl)cc1Cl", "unit_tag": "%", "result_number": -18.6}
{"molecule": "O=C1CCCCC(=O)NCCCCCCN1", "unit_tag": "%", "result_number": -21.4}
{"molecule": "C[C@]12CCC(=O)C=C1CC[C@H]1[C@@H]3CC[C@](O)(C(=O)CO)[C@@]3(C)CC(=O)[C@@]12SC(N)=O", "unit_tag": "%", "result_number": 20.8}
{"molecule": "C/C(CC1=CCCCC1)=N\\NC(N)=O", "unit_tag": "%", "result_number": -27.9}
{"molecule": "CSC1=NC(C(N)=O)C(N)N1C (stereo unspecified)", "unit_tag": "%", "result_number": 17.4}
{"molecule": "Cc1ccc(N=C2S/C(=C3/CCC=C3N3CCOCC3)N(c3ccc(Cl)cc3)C2=Nc2ccc(C)cc2)cc1", "unit_tag": "%", "result_number": -14.6}
{"molecule": "COc1cccc(C2c3cc4c(cc3OC(NNS(=O)(=O)c3ccc(C)cc3)C2C)OCO4)c1OC (stereo unspecified)", "unit_tag": "%", "result_number": 8.05}
{"molecule": "Cc1ccc2nc(NC(=O)C(=O)C(C#N)c3nc4ccccc4s3)sc2c1 (stereo unspecified)", "unit_tag": "%", "result_number": 25.6}

Every entry's value here was drawn from PubChem BioAssay (NCI).
